# Tested on: SH-SY5Y cells
# PROTOCOL_TEXT: Lactate dehydrogenase (LDH) assay, extracellular LDH
# Type: cell-based, human
# TEST_PARAMETERS: Homo sapiens, SH-SY5Y, 24 h, undifferentiated SH-SY5Y cells, 24 h exposure; read-out: LDH IC50
# Protocol: SH-SY5Y cells were differentiated as described by Encinas et al. (2000) after seeding onto either poly-D-Lysine hydrobromide (PDL) (50 µg/mL) (P6407, Sigma-Aldrich, Poole, UK) -coated cell cultureware or in 96-well microtitre plates (6005649, Perkin Elmer, Groningen, The Netherlands) with 10% FBS media and after settling, cells were grown to 60% confluency. […]
PARAMETER: IC50

{"columns": ["STRUCTURE_STRING", "PARAMETER", "RESULT"],
 "data": [
  ["CNC(=O)O/N=C/C(C)(C)SC", "IC50", "35.4 µM"]
]}

---

# Test system: SH-SY5Y cells
# PROTOCOL_TEXT: Lactate dehydrogenase (LDH) assay, extracellular LDH
# Assay type: cell-based, human
# TEST_PARAMETERS: Homo sapiens, SH-SY5Y, 24 h, differentiated SH-SY5Y cells, 24 h exposure; read-out: LDH IC50
pIC50: −log10 of the molar value.
PARAMETER: pIC50

{"columns": ["COMPOUND", "PARAMETER", "NUMERIC_VALUE"],
 "data": [
  ["CNC(=O)O/N=C/C(C)(C)SC [Aldicarb]", "pIC50", 4.52]
]}

---

# Test system: differentiated SH-SY5Y cells
# PROTOCOL_TEXT: Neurite extension (neurite length) in differentiated cells, microscopy
# Format: cell-based, human
# TEST_PARAMETERS: Homo sapiens, SH-SY5Y, 24 h, read-out: Neurite Retraction IC50
pIC50: −log10 of the molar value.

{"columns": ["COMPOUND", "STUDY_TARGET", "pIC50"],
 "data": [
  ["COP(=O)(OC)SCn1c(=O)oc2cc(Cl)cnc21 [AZO]", "differentiated SH-SY5Y cells", 4.78]
]}

---

# System: SH-SY5Y cells
# PROTOCOL_TEXT: MTT cell viability assay
# Format: cell-based, human
# TEST_PARAMETERS: Homo sapiens, SH-SY5Y, 24 h, read-out: MTT IC50

{"columns": ["COMPOUND", "STUDY_TARGET", "IC50 [µM]"],
 "data": [
  ["COP(=O)(OC)SCn1c(=O)oc2cc(Cl)cnc21 [AZO]", "SH-SY5Y cells", 26.9]
]}

---

# Tested on: SH-SY5Y cells
# PROTOCOL_TEXT: Lactate dehydrogenase (LDH) assay, extracellular LDH
# Assay type: cell-based, human
# TEST_PARAMETERS: undifferentiated SH-SY5Y cells, 24 h exposure; read-out: LDH IC50
PARAMETER: IC50 (µM)

{"columns": ["STRUCTURE_STRING", "NUMERIC_VALUE"],
 "data": [
  ["CCOP(=O)(OCC)Oc1nc(Cl)c(Cl)cc1Cl", 27.8]
]}

---

# Tested on: SH-SY5Y cells
# PROTOCOL_TEXT: MTT cell viability assay
# Assay type: cell-based, human
# TEST_PARAMETERS: Homo sapiens; undifferentiated SH-SY5Y cells, 24 h exposure; read-out: MTT IC50
pIC50: −log10 of the molar value.

{"columns": ["STRUCTURE_STRING", "STUDY_TARGET", "pIC50"],
 "data": [
  ["CNC(=O)O/N=C/C(C)(C)SC", "SH-SY5Y cells", 4.40]
]}
